Values were extracted from patent US12473304B2.

# tested.system: human PAD4 (hPAD4) (Homo sapiens (Human), UniProt Q9UM07)
# Sequence (Q9UM07 whole entry): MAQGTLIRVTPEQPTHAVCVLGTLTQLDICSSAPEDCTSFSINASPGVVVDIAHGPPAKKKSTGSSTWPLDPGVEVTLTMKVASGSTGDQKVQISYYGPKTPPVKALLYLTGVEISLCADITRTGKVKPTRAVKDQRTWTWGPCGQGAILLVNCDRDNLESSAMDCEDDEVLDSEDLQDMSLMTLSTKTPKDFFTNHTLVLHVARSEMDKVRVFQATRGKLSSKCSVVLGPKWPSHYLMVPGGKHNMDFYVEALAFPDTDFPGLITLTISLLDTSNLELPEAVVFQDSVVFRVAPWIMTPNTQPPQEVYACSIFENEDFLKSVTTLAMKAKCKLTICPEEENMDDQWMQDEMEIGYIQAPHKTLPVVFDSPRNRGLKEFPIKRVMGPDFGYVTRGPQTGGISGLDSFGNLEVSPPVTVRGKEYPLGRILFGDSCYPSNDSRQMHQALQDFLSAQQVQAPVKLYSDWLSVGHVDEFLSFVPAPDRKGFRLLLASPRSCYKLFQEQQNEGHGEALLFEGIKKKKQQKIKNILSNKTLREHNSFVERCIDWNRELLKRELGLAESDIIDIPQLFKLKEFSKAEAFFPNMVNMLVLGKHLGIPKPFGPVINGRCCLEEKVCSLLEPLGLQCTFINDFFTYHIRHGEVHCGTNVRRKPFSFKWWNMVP
# method.description: RFMS Human PAD4 Functional Assay 1
# condition.description: RFMS assay 1; 5 nM hPAD4, 250 μM BAEE substrate, 50 μM calcium, 37° C.
Record form. Attribute: IC50. Fill in for each entry.
Answers are plain numbers, in nM.

Cc1c(-c2cc3ccc(C4CC4)nc3n2CC2CC2)nn2cc(C(=O)N3CC4CCC3[C@@H]4N)cc(F)c12 (stereo partly drawn) :: 85

I need IC50 for every entry listed below, if you could help.
1. Cc1c(-c2cc3ccc(-c4ccccc4N4CCNC4=O)nc3n2CC2CC2)nn2cc(C(=O)N3CC4CCC3[C@@H]4N)ccc12 (stereo partly drawn)
2. COc1cc(C(=O)N2C[C@H](N)C[C@@H](F)C2)cn2nc(-c3cc4cccc(OCC5CC(=O)N(C)C5)c4n3CC3CC3)c(C)c12 (single isomer, unassigned) [Example 553]
3. COCC(=O)N1CCC(c2nccc3cc(-c4nn5cc(C(=O)N6C[C@H](N)C[C@@H](F)C6)cc(OC)c5c4C)n(CC4CC4)c23)CC1
4. Cc1c(-c2cc3cccc(C4CN(C(=O)[C@@H]5CCC[C@H](O)C5)C4)c3n2CC2CC2)nn2cc(C(=O)N3C[C@H](N)C[C@@H](F)C3)ccc12
5. Cc1c(-c2cc3ccnc(OCCn4ccnc4C)c3n2CC2CC2)nn2cc(C(=O)N3CCC[C@@H](N)C3)ccc12
6. COc1cc(C(=O)N2C[C@H](N)C[C@@H](F)C2)cn2nc(-c3cc4cccc(C5CCN(C(=O)C6CCCO6)CC5)c4n3CC3CC3)c(C)c12 (single isomer, unassigned) [Example 397]
7. Cc1c(-c2cc3ccc(-c4ccc5cn[nH]c5c4)nc3n2CC2CC2)nn2cc(C(=O)N3CCC[C@@H](N)C3)ccc12
8. COc1cc(C(=O)N2CC3CCC2[C@@H]3N)cn2nc(-c3cc4ccc(-c5ccc6c(c5)CNC6=O)cc4n3CC3CC3)c(C)c12 (stereo partly drawn)

output:
1: 120; 2: 90; 3: 10; 4: 580; 5: 2960; 6: 40; 7: 400; 8: 31

I need IC50 for every entry listed below, if you could help.
1. Cc1c(-c2cc3ccc(N4CCNCC4)cc3n2CC2CC2)oc2cc(C(=O)N3C[C@H](N)C[C@@H](F)C3)ccc12
2. Cc1c(-c2cc3cc(F)cc(C4CCN(C(=O)C5CCCO5)CC4)c3n2CC2CC2)nn2cc(C(=O)N3C[C@H](N)C[C@@H](F)C3)ccc12 (single isomer, unassigned) [Example 490]
3. Cc1c(-c2cc3cccc(OCC4CC(=O)N(C)C4)c3n2CC2CC2)nn2cc(C(=O)N3C[C@H](N)C[C@@H](F)C3)ccc12 (single isomer, unassigned) [Example 577]

output:
[1970, 150, 150]
